Test system: Plasmodium falciparum
TEST_SUMMARY: GSK_TCMDC: Inhibition of Plasmodium falciparum 3D7 in whole erythrocytes, using parasite LDH activity as an index of growth.
Format: functional, organism-based
EXPERIMENTAL_CONDITIONS: Plasmodium falciparum, 3D7
VALUE_TYPE: XC50 (nM)
Field format: number, assumed nM, no unit text.

>  <MOLECULE>
CC(CN(C)C)C(=O)Nc1ccc(-c2ccc(-c3nc4cc(C(F)(F)F)ccc4[nH]3)cc2)cc1 (stereo not given)

>  <UNIT_DESCRIPTOR>
nM

>  <XC50>
747

$$$$
>  <MOLECULE>
NC1CCN(Cc2ccc(-c3ccc(-c4nc5cc(F)ccc5[nH]4)s3)cc2)C1 (stereo not given)

>  <UNIT_DESCRIPTOR>
nM

>  <XC50>
646

$$$$
>  <MOLECULE>
CN(CCc1ccccc1)c1ncc(-c2cccc(CNCCC3CCCN3C)c2)cn1 (stereo not given)

>  <UNIT_DESCRIPTOR>
nM

>  <XC50>
870

$$$$
>  <MOLECULE>
CC[C@H]1CN(CCCC(=O)c2ccccc2)CC[C@H]1CCCc1ccnc2ccc(OC(=O)c3ccccc3)cc12

>  <UNIT_DESCRIPTOR>
nM

>  <XC50>
832

$$$$
>  <MOLECULE>
COc1cc2nc(NCCN3CCOCC3)n3nc(-c4ccccc4)nc3c2cc1OC

>  <UNIT_DESCRIPTOR>
nM

>  <XC50>
215

$$$$
>  <MOLECULE>
Cc1ccc2nc(N(CCCn3ccnc3)C(=O)C=Cc3cccs3)sc2c1

>  <UNIT_DESCRIPTOR>
nM

>  <XC50>
1390

$$$$
>  <MOLECULE>
COc1c(C2CCN(CCCCNC(=O)c3noc(-c4ccc(C#N)cc4)n3)CC2)ccc2c1CCCC2

>  <UNIT_DESCRIPTOR>
nM

>  <XC50>
776

$$$$
>  <MOLECULE>
Cc1ccc(Nc2nccc(Nc3ccc4c(C)n[nH]c4c3)n2)cc1F

>  <UNIT_DESCRIPTOR>
nM

>  <XC50>
785

$$$$

Write down the reported XC50 of CC(Cc1ccc(NC(=O)COc2ccc(CC(C)NCCc3cccc(Cl)c3)cc2)cc1)NCCc1cccc(Cl)c1 (stereo not given) , test system: Plasmodium falciparum. 84.3

Write down the reported XC50 of O=C1C(c2ccccc2)=C(Nc2cccc(OC(F)(F)C(F)F)c2)c2ccccc21 , test system: Plasmodium falciparum. 180

Write down the reported XC50 of Cc1cc(CNCCCCCNCc2ccc(Cl)cc2)ccc1O , test system: Plasmodium falciparum. 706

Write down the reported XC50 of O=[N+]([O-])c1ccc(Oc2ccccc2CNCC2CCN(CC3CCCCC3)CC2)cc1 , test system: Plasmodium falciparum. 903

Write down the reported XC50 of CCC(C)C(COC(=O)c1cc(OC)c(OC)c(OC)c1)N(C)CCN(C)C(COC(=O)c1cc(OC)c(OC)c(OC)c1)C(C)CC (stereo not given) , test system: Plasmodium falciparum. 947

Write down the reported XC50 of CC(=O)Nc1ccc(CN2CCC(N(C)c3cc(NC(=O)c4ccc(F)cc4)ccn3)CC2)cc1 , test system: Plasmodium falciparum. 1120

Write down the reported XC50 of Cc1cc(F)ccc1-c1nc(Nc2ccncc2)c2ccn(C)c2n1 , test system: Plasmodium falciparum. 940

Write down the reported XC50 of C=CCc1cc(C)ccc1OCCCON1C(N)=NC(N)=NC1(C)C , test system: Plasmodium falciparum. 3.2

Write down the reported XC50 of NC(=O)c1sc(-n2cnc3ccc(OCC4CCNCC4)cc32)cc1OCc1ccccc1C(F)(F)F , test system: Plasmodium falciparum. 753

Write down the reported XC50 of Cc1cc(=NN=Cc2ccc(F)cc2)c2cccc(C)c2[nH]1 , test system: Plasmodium falciparum. 779

Write down the reported XC50 of Cc1cc(N2CCCN(C)CC2)nc(Nc2ccc(Br)cc2)n1 , test system: Plasmodium falciparum. 723

Write down the reported XC50 of CC[C@@]1(O)C(=O)OCc2c1cc1n(c2=O)Cc2c-1nc1cc3c(cc1c2CN1CCOCC1)OCO3 , test system: Plasmodium falciparum. 965

Reference for the values: ChEMBL document CHEMBL1157539
